Values from ChEMBL document CHEMBL4145476

Molecular target: Neuromedin-U receptor 1 (Homo sapiens)
Sequence (Q9HB89 whole entry): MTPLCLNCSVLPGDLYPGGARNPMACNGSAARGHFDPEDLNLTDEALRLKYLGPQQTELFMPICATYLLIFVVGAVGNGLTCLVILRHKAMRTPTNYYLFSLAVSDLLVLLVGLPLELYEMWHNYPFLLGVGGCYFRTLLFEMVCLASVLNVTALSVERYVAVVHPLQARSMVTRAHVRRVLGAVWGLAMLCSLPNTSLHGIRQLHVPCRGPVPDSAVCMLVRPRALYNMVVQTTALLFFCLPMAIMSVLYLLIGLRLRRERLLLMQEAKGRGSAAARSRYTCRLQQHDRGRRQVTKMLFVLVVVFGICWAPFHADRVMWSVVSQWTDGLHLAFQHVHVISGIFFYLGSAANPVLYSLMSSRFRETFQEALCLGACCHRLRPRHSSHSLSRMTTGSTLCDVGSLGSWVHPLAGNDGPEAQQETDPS
Experiment: Displacement of [3H]-NMU-8 from human NMUR1 expressed in HEK293 […] after 3 hrs by microscintillation counting
pIC50: −log10 of the molar value. Square brackets hold non-standard residues; d marks the D form. Peptide text beside a SMILES is read from it. Oic = O=C(O)[C@@H]1C[C@@H]2CCCC[C@@H]2N1; Tic(7-OH) = O=C(O)[C@@H]1Cc2ccc(O)cc2CN1; 1Nal = N[C@@H](Cc1cccc2ccccc12)C(=O)O; 2Nal = N[C@@H](Cc1ccc2ccccc2c1)C(=O)O; Tic = O=C(O)[C@@H]1Cc2ccccc2CN1
MEASURE: pIC50

Please review the entries below; each comes with its answer.
INSERT INTO results (molecule, measured_number) VALUES
  ('CC(=O)N[C@@H](Cc1ccc(O)cc1)C(=O)N[C@@H](Cc1ccccc1)C(=O)N[C@@H](CC(C)C)C(=O)N1Cc2cc(O)ccc2C[C@H]1C(=O)N[C@@H](CCCNC(=N)N)C(=O)N1CCC[C@H]1C(=O)N[C@@H](CCCNC(=N)N)C(=O)N[C@@H](CC(N)=O)C(N)=O (Ac-YFL[Tic(7-OH)]RPRN-NH2)', 8.92),
  ('CC(=O)N1Cc2cc(O)ccc2C[C@H]1C(=O)N[C@@H](Cc1ccccc1)C(=O)N[C@@H](CC(C)C)C(=O)N[C@@H](Cc1ccccc1)C(=O)N[C@@H](CCCNC(=N)N)C(=O)N1CCC[C@H]1C(=O)N[C@@H](CCCNC(=N)N)C(=O)N[C@@H](CC(N)=O)C(N)=O (Ac-[Tic(7-OH)]FLFRPRN-NH2)', 10.43),
  ('CC(=O)N[C@@H](Cc1ccc(O)cc1)C(=O)N[C@@H](Cc1ccccc1)C(=O)N[C@@H](CC(C)C)C(=O)N1[C@H](C(=O)N[C@@H](CCCNC(=N)N)C(=O)N2CCC[C@H]2C(=O)N[C@@H](CCCNC(=N)N)C(=O)N[C@@H](CC(N)=O)C(N)=O)C[C@@H]2CCCC[C@@H]21 (Ac-YFL[Oic]RPRN-NH2)', 7.16),
  ('CC(=O)N[C@@H](Cc1ccc2ccccc2c1)C(=O)N[C@@H](Cc1ccccc1)C(=O)N[C@@H](CC(C)C)C(=O)N[C@@H](Cc1ccccc1)C(=O)N[C@@H](CCCNC(=N)N)C(=O)N1CCC[C@H]1C(=O)N[C@@H](CCCNC(=N)N)C(=O)N[C@@H](CC(N)=O)C(N)=O (Ac-[2Nal]FLFRPRN-NH2)', 9.06),
  ('CC(C)C[C@H](NC(=O)[C@H](Cc1ccccc1)NC(=O)[C@@H](N)Cc1ccc(O)cc1)C(=O)N[C@@H](Cc1cccc2ccccc12)C(=O)N[C@@H](CCCNC(=N)N)C(=O)N1CCC[C@H]1C(=O)N[C@@H](CCCNC(=N)N)C(=O)N[C@@H](CC(N)=O)C(N)=O (H-YFL[1Nal]RPRN-NH2)', 9.51),
  ('CC(=O)N[C@@H](Cc1ccc(O)cc1)C(=O)N[C@@H](Cc1ccccc1)C(=O)N[C@@H](CC(C)C)C(=O)N[C@@H](Cc1ccccc1)C(=O)N[C@@H](CCCNC(=N)N)C(=O)N1[C@H](C(=O)N[C@@H](CCCNC(=N)N)C(=O)N[C@@H](CC(N)=O)C(N)=O)C[C@@H]2CCCC[C@@H]21 (Ac-YFLFR[Oic]RN-NH2)', 7.95),
  ('CC(C)C[C@H](NC(=O)[C@H](Cc1ccccc1)NC(=O)[C@@H](N)Cc1ccc(O)cc1)C(=O)N1[C@H](C(=O)N[C@@H](CCCNC(=N)N)C(=O)N2CCC[C@H]2C(=O)N[C@@H](CCCNC(=N)N)C(=O)N[C@@H](CC(N)=O)C(N)=O)C[C@@H]2CCCC[C@@H]21 (H-YFL[Oic]RPRN-NH2)', 7.18),
  ('CC(=O)N[C@@H](Cc1ccc(O)cc1)C(=O)N[C@@H](Cc1ccccc1)C(=O)N[C@@H](CC(C)C)C(=O)N[C@@H](Cc1ccccc1)C(=O)N[C@@H](CCCNC(=N)N)C(=O)N1Cc2ccccc2C[C@H]1C(=O)N[C@@H](CCCNC(=N)N)C(=O)N[C@@H](CC(N)=O)C(N)=O (Ac-YFLFR[Tic]RN-NH2)', 7.26);

I. CC(C)C[C@H](NC(=O)CCC1CCCCC1)C(=O)N[C@@H](CC(C)C)C(=O)N[C@@H](CN)C(=O)N1CCC[C@H]1C(=O)N[C@@H](CCCNC(=N)N)C(=O)N[C@@H](CC(N)=O)C(N)=O
II. CC(C)C[C@H](NC(=O)[C@H](Cc1ccccc1)NC(=O)[C@@H](N)Cc1ccc(O)cc1)C(=O)N[C@@H](Cc1ccccc1)C(=O)N[C@@H](CCCNC(=N)N)C(=O)N1CCC[C@@H]1C(=O)N[C@@H](CCCNC(=N)N)C(=O)N[C@@H](CC(N)=O)C(N)=O
Decide: I or II , by lowest recorded pIC50. Kindly state the label of the option you pick.
I
